Please respond with reported Enzyme Activity Endpoint Assay: scIgG for every item in the list.
# measured.on: pooled human IgG
One number for each entry, in ng/µL.

Guide cases for Enzyme Activity Endpoint Assay: scIgG, answers given:
PRT-39 (protein) MANQEIRYSEVTPYHVTSVWTKGVTPPANFTQGEDVFHAPYVANQGWYDITKTFNGKDDLLCGAATAGNMLHWWFDQNKDQIKRYLEEHPEKQKINFNGEQMFDVKEAIDTKNHQLDSKLFEYFKEKAFPYLSTKHLGVFPDHVIDMFINGYRLSLTNHGPTPVKEGSKDPRGGIFDAVFTRGDQSKLLTSRHDFKEKNLKEISDLIKQELTEGKALGLSHTYANVRINHVINLWGADFDSNGNLKAIYVTDSDSNASIGMKKYFVGVNSAGKVAISAKEIKEDNIGAQVLGLFTLSTGQDSWNQTN    19
PRT-6 (protein) MANQEIRYSEVTPYHVTSVWTKGVTPPANFTQGEDVFHAPYVANQGWYDITKTFNGKDDLLCGAATAGNMLHWWFDQNKEQIERYLKEHPEKQKINFNGEQMFDVKEAIDTKNSQLDSKLFEYFKEKAFPYLSTKHLGVFPDHVIDMFINGYRLSLTNHGPTPVKEGSKDPRGGIFDAVFTRGDQSKLLTSRHDFKEKNLKEISDLIKKELTEGKALGLSHTYANVRINHVINLWGADFDSNGNLKAIYVTDSDSNASIGMKKYFVGVNSAGKVAISAKEIEGDNIGAQVLGLFTLSTGQDIWNQTN    15
PRT-43 (protein) MANQEIRYSEVTPYHVTSVWTKGVTPPANFTQGEDVFHAPYVANQGWYDITKTFNGKDDLLCGAATAGNMLHWWFDQNKDQIDRYLEEHPEKQKINFNGEQMFDVKEAIDTKNDQTDSKLFEYFKEKAFPYLSTKHLGVFPDLVIDMFINGYRLSLTNHGPTPVKEGSKDPRGGIFDAVFTRGDQSKLLTSRHDLKEKNLKEISDLIKKELTEGKALGLSHTYANVRINHVINLWGADFDSNGNLKAIYVTDSDSNASIGMKKYFVGVNSAGKVAISAKEIKEDNIGAQVLGLFTLSTGQDSWNQTN    32

Next protein, Enzyme Activity Endpoint Assay: scIgG to be filled in.
Query string: Looking for the measured Enzyme Activity Endpoint Assay: scIgG of PRT-38 (protein) MANQEIRYSEVTPYHVTSVWTKGVTPPANFTQGEDVFHAPYVANQGWYDITKTFNGKDDLLCGAATAGNMLHWWFDQNKDQIKRYLEEHPEKQKINFNGEQMFDVKEAIDTKNHQLDSKLFEYFKEKAFPYLSTKHLGVFPDHVIDMFINGYRLSLTNHGPTPVKEGSKDPRGGIFDAVFTRGDQSKLLTSRHDFKEKNLKEISDLIKKELTEGKALGLSHTYANVRINHVINLWGADFDSNGNLEAIYVTDSDSNASIGMKKYFVGVNSAGKVAISAKEIKEDNIGAQVLGLFTLSTGQDSWNQTN , can you help?
Result string: 15
